Tested on: ATP;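 also: ATP exposure 15 min at 22 °C before imaging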
Assay: switch fluorescence ratio, 500 uM ATP over buffer (Cy3 cluster intensity, sum of 5 cycles each) (fold (ratio)); higher = stronger signal-on switching upon ATP binding; sequences stand for … in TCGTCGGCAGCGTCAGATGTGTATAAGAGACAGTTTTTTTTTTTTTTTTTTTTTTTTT…TC
Conditions: aptamer strand: ATP DNA aptamer (quencher-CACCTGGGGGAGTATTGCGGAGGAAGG + anchor), 100 nM annealed; ATP concentration: 500 uM
QUANTITY_KIND: switch fluorescence ratio
Note: the reply should be a number with no unit written.

Example entries begin here.
AACCCACATC = 1.3
CGGTTACCTG = 0.971
TAACCGATGT = 1.01
CAGGGTACGC = 1.04
AGGACGTTTT = 0.962
ATTGCATTAA = 0.985

Prompt line: I am curious: what switch fluorescence ratio value has been reported for TCACATGTGG ?
Response line: 1.03

Prompt line: # lookup: switch fluorescence ratio of AGGGGGATGT
Response line: 0.974

---

Readings of switch fluorescence ratio for the listed sequences
Tested on: ATP;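 also: ATP exposure 15 min at 22 °C before imaging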
Test: switch fluorescence ratio, 500 uM ATP over buffer (Cy3 cluster intensity, sum of 5 cycles each) (fold (ratio)); higher = stronger signal-on switching upon ATP binding; sequences stand for … in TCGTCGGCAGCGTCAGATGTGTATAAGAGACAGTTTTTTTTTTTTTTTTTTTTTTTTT…TC
Details: aptamer strand: ATP DNA aptamer (quencher-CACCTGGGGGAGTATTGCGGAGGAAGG + anchor), 100 nM annealed; ATP concentration: 500 uM
Lab note: jot the number down without any unit.

Prompt line: Name the recorded switch fluorescence ratio for GGGTTGGATG .
Response line: 0.996

Prompt line: // lookup switch fluorescence ratio for GGGTCGGGTA
Response line: 1.04

Prompt line: Report switch fluorescence ratio for GGCAGAAAAT please.
Response line: 1.01

Prompt line: // switch fluorescence ratio lookup, key: GGGCCAGTGC
Response line: 1.03

Prompt line: # switch fluorescence ratio lookup, item ATTGATTGCT
Response line: 0.999

Prompt line: Name the recorded switch fluorescence ratio for TGGCTGATTT .
Response line: 1

Prompt line: Look up switch fluorescence ratio for this sequence: TGGTAGAGTG
Response line: 0.987

Prompt line: I am curious: what switch fluorescence ratio value has been reported for TCGGCTGGAA ?
Response line: 1.03

---

Test system: ATP;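 also: ATP exposure 15 min at 22 °C before imaging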
Test: switch fluorescence ratio, 500 uM ATP over buffer (Cy3 cluster intensity, sum of 5 cycles each) (fold (ratio)); higher = stronger signal-on switching upon ATP binding; sequences stand for … in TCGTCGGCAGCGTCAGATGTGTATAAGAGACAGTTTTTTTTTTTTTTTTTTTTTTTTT…TC
Conditions: aptamer strand: ATP DNA aptamer (quencher-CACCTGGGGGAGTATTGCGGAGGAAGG + anchor), 100 nM annealed; ATP concentration: 500 uM
QUANTITY_KIND: switch fluorescence ratio
# print the numeric value only

The cases that follow already have their switch fluorescence ratio on record.
GGGTGGACCT = 1.13
AGAGGCTTAG = 1
CATAAGGCAA = 1.28
AGTTTCTGTG = 0.968
CACTAGAAGC = 1.04
CCACGGTTAG = 0.981

Prompt line: Need switch fluorescence ratio, item GAATTTATTT
Response line: 0.999

Prompt line: Which switch fluorescence ratio reading was recorded for the sequence AGGTAATTAG ?
Response line: 1

Prompt line: Need switch fluorescence ratio, item TATAGATTTT
Response line: 1

Prompt line: So what does the record say about switch fluorescence ratio for GTACCCCAGG ?
Response line: 3.5

Prompt line: Can you share its switch fluorescence ratio? I mean this sequence: TTAGGCCAGG
Response line: 1.05

Prompt line: Returns the measured switch fluorescence ratio for the input sequence. Input: GGGGGCGTAC
Response line: 1.06

Prompt line: Bench note: what switch fluorescence ratio did TTCGGTGTTT show?
Response line: 1.02

Prompt line: Look up switch fluorescence ratio: ATTTTCATTA
Response line: 0.996

Prompt line: Sample TGTGAAGTTG — what was its switch fluorescence ratio?
Response line: 1.01

Prompt line: For TAGCTGTTGT , what is its reported switch fluorescence ratio?
Response line: 0.993

Prompt line: Which measured switch fluorescence ratio value corresponds to TCACTGGGGA ?
Response line: 0.995

Prompt line: Could you tell me which switch fluorescence ratio is on file for TACGGAAAGT ?
Response line: 1.02

Prompt line: Recorded switch fluorescence ratio for GAGGCGGCGG , please?
Response line: 1.07

Prompt line: Look up switch fluorescence ratio for this sequence: CCAACGGGGA
Response line: 1.1

Taken from the supplement of paper PMC10126150.
